Record form. Attribute: Percent Effect. Fill in for each entry.
- Test system: Wolbachia pipientis
- Assay procedure: Anti-Wolbachia Cell-Based Screen
- Assay type: functional
- Design: scale not given: in the data most compounds retested in dose-response had high values
- Run conditions: 5 µM
Screen size: about 48,000 compounds; about 13,000 (27%) showed an effect of 50% or more. This is one part of the list.
Express it in %; write the number only.

Ask: Query Percent Effect on Wolbachia pipientis for `O=C(c1ccc(O)cc1)N1CCN(C(=O)c2ccc3c(c2)COC3)CC1`
Result: -5.572

Ask: Query Percent Effect on Wolbachia pipientis for `Cc1ccc(C(=O)Nc2ccc(OC3CCN(C)CC3)cc2)c(C)c1`
Result: 4.12

Ask: Query Percent Effect on Wolbachia pipientis for Cc1nnsc1C(=O)N1CCCC(c2nccn2Cc2cscn2)C1 (stereo not given)
Result: 19.06

Ask: Query Percent Effect on Wolbachia pipientis for `Cn1ccnc1-c1nccn1-c1cccc(CN2CCCC2)c1`
Result: -8.491

Ask: Query Percent Effect on Wolbachia pipientis for `CN1CCC(Oc2ccc(-n3ccnc3-c3ccncc3)cc2)CC1`
Result: 114.7

Ask: Query Percent Effect on Wolbachia pipientis for O=C(CCN1CCCCC1)N1CCC(Cc2ccc(CO)cc2)C1 (stereo not given)
Result: -4.228

Ask: Query Percent Effect on Wolbachia pipientis for CC1c2ncc(Cn3cccn3)n2CCN1Cc1cccnc1.O=C(O)C(F)(F)F.O=C(O)C(F)(F)F (stereo not given)
Result: 97.64

Ask: Query Percent Effect on Wolbachia pipientis for Cn1ncc2c1C(COCC1CC1)CN(Cc1nccs1)C2 (stereo not given)
Result: -9.049

Ask: Query Percent Effect on Wolbachia pipientis for CC1c2ncc(Cn3cccn3)n2CCN1Cc1ccccn1.O=C(O)C(F)(F)F.O=C(O)C(F)(F)F (stereo not given)
Result: 102.5

Ask: Query Percent Effect on Wolbachia pipientis for Cc1nn(C)cc1C(=O)N1CCCC(n2nnc3cc(F)ccc32)C1 (stereo not given)
Result: 70.61

Ask: Query Percent Effect on Wolbachia pipientis for `Cc1nnc(NCC2(c3ccccc3)CCC2)c(C#N)c1C`
Result: 7.557

Ask: Query Percent Effect on Wolbachia pipientis for Cc1cc(N(C)C)nc(C2(C)CCCNC2)n1 (stereo not given)
Result: 102.5

Ask: Query Percent Effect on Wolbachia pipientis for `Cc1nn(C)c(N(C)C)c1CNCc1cccc(Cn2cccn2)c1`
Result: 3.492

Ask: Query Percent Effect on Wolbachia pipientis for O=C(c1n[nH]cc1Cl)N1CCOC(Cc2cccc(C(F)(F)F)c2)C1 (stereo not given)
Result: 16.6

Ask: Query Percent Effect on Wolbachia pipientis for OCC1CCCCN1Cc1nc(Cc2ccccc2)no1 (stereo not given)
Result: 15.34

Ask: Query Percent Effect on Wolbachia pipientis for Cc1c(C(=O)NC2(C#N)CCSC2)nnn1-c1ccccc1Cl (stereo not given)
Result: 1.619

Ask: Query Percent Effect on Wolbachia pipientis for CCn1ncc2c1C(COC)CN(Cc1nccs1)C2 (stereo not given)
Result: 93.87

Ask: Query Percent Effect on Wolbachia pipientis for `CCC(CC)c1cc(CNC(=O)N2CCC(CO)CC2)on1`
Result: 3.231

Ask: Query Percent Effect on Wolbachia pipientis for Cc1c(C(=O)N2CCCC(n3nnc4cc(F)ccc43)C2)cnn1C (stereo not given)
Result: 103.4

Ask: Query Percent Effect on Wolbachia pipientis for CCc1nnsc1C(=O)N1CCCC(COc2ccc(F)cc2)C1 (stereo not given)
Result: -1.511

Ask: Query Percent Effect on Wolbachia pipientis for `CN1CCC(Oc2ccc(-n3ccnc3-c3nccn3C)cc2)CC1`
Result: 110.4

Ask: Query Percent Effect on Wolbachia pipientis for CCn1ncc2c1C(COC)CN(Cc1ccc(OC)cc1)C2 (stereo not given)
Result: 12.18

Ask: Query Percent Effect on Wolbachia pipientis for `Cc1cc(N(C)C)nc(C2(C)CCNCC2)n1`
Result: 87.74

Ask: Query Percent Effect on Wolbachia pipientis for c1ccc(Cc2noc(CN3CCCCC3Cn3cccn3)n2)cc1 (stereo not given)
Result: 121.7

Ask: Query Percent Effect on Wolbachia pipientis for O=C(CN1CCN(CC2CCOc3ccccc3C2)CC1)N1CCCC1 (stereo not given)
Result: 1.365

Ask: Query Percent Effect on Wolbachia pipientis for `Cc1cccc(C(=O)N2CCCN(Cc3cscn3)CC2)c1`
Result: 101.4

Ask: Query Percent Effect on Wolbachia pipientis for `Cc1nc(N(C)C)cc(C2(C)CCNCC2)n1`
Result: 111

Ask: Query Percent Effect on Wolbachia pipientis for `CN1CCN(C(=O)c2cccc(OCc3cscn3)c2)CC1`
Result: -0.311

Ask: Query Percent Effect on Wolbachia pipientis for `COc1nccnc1N1CCC2(CC1)[C@H](O)C[C@@H]2OCCN(C)C`
Result: -0.5657

Ask: Query Percent Effect on Wolbachia pipientis for `Cc1nnc(CN2CCC(Oc3ccc(F)cc3)CC2)o1`
Result: -12.54
